Provenance of the data: paper PMC11173628

Experiment: In vitro cytotoxicity assay (XTT), Caco-2
Settings: human, Caco-2
readout.label: CC50 at 48 h (µM)
Answer with a number only, understood to be in µM.

Task: Which CC50 at 48 h is listed for `Cc1ncc([N+](=O)[O-])n1CCOC(=O)Nc1ccc([N+](=O)[O-])cc1` ?
Result: 580
